Protocol Notes: Balb/C mouse pharmacokinetics, oral 5 mg/kg
Type: in vivo, Balb/C mice
Condition: male, p.o. 5 mg/kg, plasma, read-out: Curve area AUC0-t
I'd appreciate it if you marked entries criterion met when AUC(0-t) is lower than 10000 ng·h/mL and criterion not met when it is not.

Determine if C#C[C@](C)(O)COc1cc(-c2ccc(N3CC4CC(C3)N4Cc3ccc(OC)nc3)nc2)c2c(C#N)cnn2c1 [Embodiment 64] shows AUC(0-t) strictly lower than 10000 ng·h/mL.
criterion not met

Determine if COc1ncc(CN2C3CC2CN(c2ccc(-c4cc(C#C[C@@H](C)O)cn5ncc(C#N)c45)cn2)C3)cc1F [Embodiment 68] shows AUC(0-t) strictly lower than 10000 ng·h/mL.
criterion met

Determine if COc1ccc(CN2C3CC2CN(c2ccc(-c4cc(OCC5(C#N)CCOCC5)cn5ncc(C#N)c45)cn2)C3)cn1 [Embodiment 59] shows AUC(0-t) strictly lower than 10000 ng·h/mL.
criterion met

Determine if COc1ncc(CN2C3CC2CN(c2ccc(-c4cc(OCC5(C#N)CC5)cn5ncc(C#N)c45)cn2)C3)cc1F [Embodiment 55] shows AUC(0-t) strictly lower than 10000 ng·h/mL.
criterion not met

Determine if COc1ccc(CN2C3CC2CN(c2ccc(-c4cc(OCC(C)(C)C#N)cn5ncc(C#N)c45)cn2)C3)cn1 [Embodiment 9] shows AUC(0-t) strictly lower than 10000 ng·h/mL.
criterion not met

Determine if COc1ccc(CN2C3CC2CN(c2ccc(-c4cc(OC[C@H]5C[C@@](C)(O)C5)cn5ncc(C#N)c45)cn2)C3)cn1 [Embodiment 44] shows AUC(0-t) strictly lower than 10000 ng·h/mL.
criterion not met

Determine if COc1ccc(CN2C3CC2CN(c2ccc(-c4cc(N5CC(C(C)(C)O)C5)cn5ncc(C#N)c45)cn2)C3)cn1 [Embodiment 7] shows AUC(0-t) strictly lower than 10000 ng·h/mL.
criterion not met

----------
Protocol Notes: Balb/C mouse pharmacokinetics, oral 5 mg/kg
Type: in vivo, Balb/C mice
Condition: male, p.o. 5 mg/kg, plasma, read-out: Blood concentration Cmax
Experimental: The pharmacokinetic behavior of the following compound embodiments, administered orally at a dose of 5 mg/kg in plasma in mice, was studied using Balb/C mice as test animals. Balb/C Mouse 6/embodiment, male, Shanghai Jiesijie Laboratory Animal Co., Ltd, Animal Production License No. (SCXK (Shanghai) 2013-0006 N0.311620400001794). […] The main pharmacokinetic parameters were calculated by WinNonlin 6.1 and the results of the mouse pharmacokinetic experiments were shown in Table 13 below.
Assign MET to entries whose Cmax meets or exceeds 3000 ng/mL; assign NOT MET to the rest.

Known results for compounds:
{"Compound": "COc1ncc(CN2C3CC2CN(c2ccc(-c4cc(C#CC(C)(C)O)cn5ncc(C#N)c45)cn2)C3)cc1F", "Answer Label": "NOT MET"}
{"Compound": "COc1ccc(CN2C3CC2CN(c2ccc(-c4cc(N5CC(C(C)(C)O)C5)cn5ncc(C#N)c45)cn2)C3)cn1", "Answer Label": "MET"}
{"Compound": "COc1ncc(CN2C3CC2CN(c2ccc(-c4cc(N5CC(C(C)(C)O)C5)cn5ncc(C#N)c45)cn2)C3)cc1F", "Answer Label": "MET"}
{"Compound": "C#C[C@](C)(O)COc1cc(-c2ccc(N3CC4CC(C3)N4Cc3ccc(OC)nc3)nc2)c2c(C#N)cnn2c1", "Answer Label": "MET"}
{"Compound": "COc1ccc(CN2C3CC2CN(c2ccc(-c4cc(OCC(C)(C)C#N)cn5ncc(C#N)c45)cn2)C3)cn1", "Answer Label": "NOT MET"}

Kindly determine if Cmax recorded for C#CC(C)(O)COc1cc(-c2ccc(N3CC4CC(C3)N4Cc3ccc(OC)nc3)nc2)c2c(C#N)cnn2c1 (stereo not shown) is above or exactly 3000 ng/mL.
NOT MET

----------
Tested On: RET M918T (Homo sapiens, UniProt P07949, M918T)
Sequence (P07949 29-1114 M918T): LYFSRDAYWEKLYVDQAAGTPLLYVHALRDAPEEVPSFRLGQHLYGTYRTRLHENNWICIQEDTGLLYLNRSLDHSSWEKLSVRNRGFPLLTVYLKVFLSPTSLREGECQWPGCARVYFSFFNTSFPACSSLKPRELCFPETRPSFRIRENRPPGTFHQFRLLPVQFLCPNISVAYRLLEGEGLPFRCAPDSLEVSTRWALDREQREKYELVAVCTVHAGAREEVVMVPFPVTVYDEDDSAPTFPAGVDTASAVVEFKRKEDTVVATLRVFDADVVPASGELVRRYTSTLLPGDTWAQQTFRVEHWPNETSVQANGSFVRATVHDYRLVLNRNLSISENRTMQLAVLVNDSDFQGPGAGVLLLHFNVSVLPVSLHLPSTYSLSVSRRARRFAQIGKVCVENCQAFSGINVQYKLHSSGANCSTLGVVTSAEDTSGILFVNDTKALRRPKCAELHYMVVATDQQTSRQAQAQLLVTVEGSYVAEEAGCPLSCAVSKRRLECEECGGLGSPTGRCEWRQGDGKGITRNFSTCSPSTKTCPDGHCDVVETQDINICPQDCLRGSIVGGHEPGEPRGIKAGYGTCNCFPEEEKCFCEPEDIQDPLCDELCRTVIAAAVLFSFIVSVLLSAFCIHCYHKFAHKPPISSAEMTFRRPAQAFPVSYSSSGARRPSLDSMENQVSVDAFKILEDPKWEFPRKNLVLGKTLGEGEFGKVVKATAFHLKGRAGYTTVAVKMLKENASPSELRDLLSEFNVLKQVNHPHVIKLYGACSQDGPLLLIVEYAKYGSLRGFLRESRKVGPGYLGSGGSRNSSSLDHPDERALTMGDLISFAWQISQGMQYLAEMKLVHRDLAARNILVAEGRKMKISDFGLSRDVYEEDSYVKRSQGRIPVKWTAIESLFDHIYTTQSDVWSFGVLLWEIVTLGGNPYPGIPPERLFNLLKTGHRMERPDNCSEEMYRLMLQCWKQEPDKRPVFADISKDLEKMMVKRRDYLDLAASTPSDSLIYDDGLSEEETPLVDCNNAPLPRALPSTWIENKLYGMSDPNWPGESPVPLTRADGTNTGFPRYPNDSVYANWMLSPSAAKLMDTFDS
Protocol Notes: HTRF kinase activity inhibition, RET M918T
Condition: ATP at Km
Endpoint: pIC50
Keep it numeric: pIC50 is minus log10 of the concentration in mol/L.

As a guide, the following entries are already answered.
{"Test Smiles": "COc1ccc(CN2C3CC2CN(c2ccc(-c4cc(N5CC(C(C)(C)O)C5)cn5ncc(C#N)c45)cn2)C3)cn1", "pIC50": 8.97}
{"Test Smiles": "COc1ncc(CN2C3CC2CN(c2ccc(-c4cc(C#CC(C)(C)O)cn5ncc(C#N)c45)cn2)C3)cc1F", "pIC50": 9.18}
{"Test Smiles": "COc1ccc(CN2C3CC2CN(c2ccc(-c4cc(N5CC(C)(C#N)C5)cn5ncc(C#N)c45)cn2)C3)cn1", "pIC50": 9.39}
{"Test Smiles": "C#C[C@@](C)(O)COc1cc(-c2ccc(N3CC4CC(C3)N4Cc3ccc(OC)nc3)nc2)c2c(C#N)cnn2c1", "pIC50": 9.68}
{"Test Smiles": "COc1ncc(CN2C3CC2CN(c2ccc(-c4cc(N5CC(C(C)(C)O)C5)cn5ncc(C#N)c45)cn2)C3)cc1F", "pIC50": 9.33}

Next compound, please.
For RET M918T (Homo sapiens, UniProt P07949, M918T), provide pIC50 of CC(C)(O)C#Cc1cc(-c2ccc(N3CCC(C)(NC(=O)c4ncccc4Cl)CC3)nc2)c2c(C#N)cnn2c1 please.
9.10

----------
Protocol Notes: Thermodynamic solubility in different media at 37° C.
Assay type: physicochemical
Condition: FaSSGF (artificial simulated gastric fluid), fassgf or other biorelevant, thermodynamic from solid, FaSSGF, 37° C., read-out: Solubility of crystal form I
Endpoint: solubility at 4 h

solubility at 4 h lookup needed for C#C[C@@](C)(O)COc1cc(-c2ccc(N3CC4CC(C3)N4Cc3ccc(OC)nc3)nc2)c2c(C#N)cnn2c1 [crystal form I] , thanks.
> 2000 µg/mL

----------
Protocol Notes: Balb/C mouse pharmacokinetics, oral 5 mg/kg
Type: in vivo, Balb/C mice
Condition: male, p.o. 5 mg/kg, plasma, read-out: Peak time tmax
Listing of recorded Tmax by entry.
Answer format: number, then unit.

As a guide, the following entries are already answered.
{"Test Smiles": "COc1ncc(CN2C3CC2CN(c2ccc(-c4cc(N5CC(C(C)(C)O)C5)cn5ncc(C#N)c45)cn2)C3)cc1F", "Endpoint": "Tmax", "Observed Result": "30 min"}
{"Test Smiles": "COc1ccc(CN2C3CC2CN(c2ccc(-c4cc(N5CC(C)(C#N)C5)cn5ncc(C#N)c45)cn2)C3)cn1", "Endpoint": "Tmax", "Observed Result": "30 min"}

Next compound, please.
Tmax lookup needed for C#C[C@@](C)(O)COc1cc(-c2ccc(N3CC4CC(C3)N4Cc3ccc(OC)nc3)nc2)c2c(C#N)cnn2c1 , thanks.
60 min

----------
Protocol Notes: Balb/C mouse pharmacokinetics, oral 5 mg/kg
Assay type: in vivo, Balb/C mice
Condition: male, p.o. 5 mg/kg, plasma, read-out: Peak time tmax
Endpoint: Tmax (min)
Your answer should be a plain number; it is taken to be in min.

{"Molecule": "COc1ncc(CN2C3CC2CN(c2ccc(-c4cc(OCC5(C#N)CC5)cn5ncc(C#N)c45)cn2)C3)cc1F", "Tmax, min": 120}
{"Molecule": "C#CC(C)(O)COc1cc(-c2ccc(N3CC4CC(C3)N4Cc3ccc(OC)nc3)nc2)c2c(C#N)cnn2c1 (centres unmarked)", "Tmax, min": 30}
{"Molecule": "COc1ccc(CN2C3CC2CN(c2ccc(-c4cc(C#CC(C)(C)O)cn5ncc(C#N)c45)cn2)C3)cn1", "Tmax, min": 30}

Tmax lookup needed for C#C[C@](C)(O)COc1cc(-c2ccc(N3CC4CC(C3)N4Cc3cnc(OC)c(F)c3)nc2)c2c(C#N)cnn2c1 , thanks.
120

Tmax lookup needed for COc1ccc(CN2C3CC2CN(c2ccc(-c4cc(OCC5(C#N)CCC5)cn5ncc(C#N)c45)cn2)C3)cn1 , thanks.
30

Tmax lookup needed for COc1ncc(CN2C3CC2CN(c2ccc(-c4cc(OCC5(C#N)CCOCC5)cn5ncc(C#N)c45)cn2)C3)cc1F , thanks.
30

Tmax lookup needed for C#C[C@](C)(O)COc1cc(-c2ccc(N3CC4CC(C3)N4Cc3ccc(OC)nc3)nc2)c2c(C#N)cnn2c1 , thanks.
60

Tmax lookup needed for COc1ccc(CN2C3CC2CN(c2ccc(-c4cc(OCC5(C#N)CCOCC5)cn5ncc(C#N)c45)cn2)C3)cn1 , thanks.
30

Tmax lookup needed for COc1ncc(CN2C3CC2CN(c2ccc(-c4cc(C#CC(C)(C)O)cn5ncc(C#N)c45)cn2)C3)cc1F , thanks.
30

Tmax lookup needed for COc1ccc(CN2C3CC2CN(c2ccc(-c4cc(OC[C@H]5C[C@@](C)(O)C5)cn5ncc(C#N)c45)cn2)C3)cn1 , thanks.
30

Tmax lookup needed for COc1ncc(CN2C3CC2CN(c2ccc(-c4cc(C#C[C@@H](C)O)cn5ncc(C#N)c45)cn2)C3)cc1F , thanks.
30

Tmax lookup needed for COc1ccc(CN2C3CC2CN(c2ccc(-c4cc(OCC(C)(C)C#N)cn5ncc(C#N)c45)cn2)C3)cn1 , thanks.
30

Tmax lookup needed for CC1(NC(=O)c2ncccc2Cl)CCN(c2ccc(-c3cc(OCC4(C#N)CC4)cn4ncc(C#N)c34)cn2)CC1 , thanks.
30

Tmax lookup needed for COc1ccc(CN2C3CC2CN(c2ccc(-c4cc(N5CC(C(C)(C)O)C5)cn5ncc(C#N)c45)cn2)C3)cn1 , thanks.
30

Just for reference, patent US20230406865A1 is where these values come from.
